Target of assay: T1, K48-linked diubiquitin (human, UniProt P0CG48 1-76, isopeptide bond between Lys48 of one ubiquitin and the C-terminal Gly of the other)
T1 construct: Boston Biochem
Assay method text: SPR Biacore, antigen immobilized
Would you kindly list koff for each of these binders?
Field: value (include unit after the number)

Field koff (entry Fab apu02 (Fab, V domains shown) VH: EVQLVESGGGLVQPGGSLRLSCAASGFNVSYSYMHWVRQAPGKGLEWVASISSYYSYTSYADSVKGRFTISADTSKNTAYLQMNSLRAEDTAVYYCARSYSYYSAIDYWGQGTLVTVSS VL: DIQMTQSPSSLSASVGDRVTITCRASQSVSSAVAWYQQKPGKAPKLLIYSASSLYSGVPSRFSGSRSGTDFTLTISSLQPEDFATYYCQQSSYSSLFTFGQGTKVEIK ) reads 0.00696 s⁻¹

Field koff (entry Fab apu11 (Fab, V domains shown) VH: EVQLVESGGGLVQPGGSLRLSCAASGFNVSYYYIHWVRQAPGKGLEWVASISSYYGYTSYADSVKGRFTISADTSKNTAYLQMNSLRAEDTAVYYCARENYWWAIDYWGQGTLVTVSS VL: DIQMTQSPSSLSASVGDRVTITCRASQSVSSAVAWYQQKPGKAPKLLIYSASSLYSGVPSRFSGSRSGTDFTLTISSLQPEDFATYYCQQSYYYYPITFGQGTKVEIK ) reads 0.0177 s⁻¹

Field koff (entry Fab apu07 (Fab, V domains shown) VH: EVQLVESGGGLVQPGGSLRLSCAASGFNLSYSYIHWVRQAPGKGLEWVASISSYYGSTSYADSVKGRFTISADTSKNTAYLQMNSLRAEDTAVYYCARESFYYSPAFDYWGQGTLVTVSS VL: DIQMTQSPSSLSASVGDRVTITCRASQSVSSAVAWYQQKPGKAPKLLIYSASSLYSGVPSRFSGSRSGTDFTLTISSLQPEDFATYYCQQSYYYSLFTFGQGTKVEIK ) reads 0.00993 s⁻¹

Field koff (entry Fab apu13 (Fab, V domains shown) VH: EVQLVESGGGLVQPGGSLRLSCAASGFNVSYYSIHWVRQAPGKGLEWVASIYPYYSYTSYADSVKGRFTISADTSKNTAYLQMNSLRAEDTAVYYCARSYSYSYGLDYWGQGTLVTVSS VL: DIQMTQSPSSLSASVGDRVTITCRASQSVSSAVAWYQQKPGKAPKLLIYSASSLYSGVPSRFSGSRSGTDFTLTISSLQPEDFATYYCQQYSSSYYPFTFGQGTKVEIK ) reads 0.016 s⁻¹
